target: U5 small nuclear ribonucleoprotein 200 kDa helicase (Homo sapiens); note: in the data inactive means no Kd found up to 30 µM
Sequence (O75643 whole entry): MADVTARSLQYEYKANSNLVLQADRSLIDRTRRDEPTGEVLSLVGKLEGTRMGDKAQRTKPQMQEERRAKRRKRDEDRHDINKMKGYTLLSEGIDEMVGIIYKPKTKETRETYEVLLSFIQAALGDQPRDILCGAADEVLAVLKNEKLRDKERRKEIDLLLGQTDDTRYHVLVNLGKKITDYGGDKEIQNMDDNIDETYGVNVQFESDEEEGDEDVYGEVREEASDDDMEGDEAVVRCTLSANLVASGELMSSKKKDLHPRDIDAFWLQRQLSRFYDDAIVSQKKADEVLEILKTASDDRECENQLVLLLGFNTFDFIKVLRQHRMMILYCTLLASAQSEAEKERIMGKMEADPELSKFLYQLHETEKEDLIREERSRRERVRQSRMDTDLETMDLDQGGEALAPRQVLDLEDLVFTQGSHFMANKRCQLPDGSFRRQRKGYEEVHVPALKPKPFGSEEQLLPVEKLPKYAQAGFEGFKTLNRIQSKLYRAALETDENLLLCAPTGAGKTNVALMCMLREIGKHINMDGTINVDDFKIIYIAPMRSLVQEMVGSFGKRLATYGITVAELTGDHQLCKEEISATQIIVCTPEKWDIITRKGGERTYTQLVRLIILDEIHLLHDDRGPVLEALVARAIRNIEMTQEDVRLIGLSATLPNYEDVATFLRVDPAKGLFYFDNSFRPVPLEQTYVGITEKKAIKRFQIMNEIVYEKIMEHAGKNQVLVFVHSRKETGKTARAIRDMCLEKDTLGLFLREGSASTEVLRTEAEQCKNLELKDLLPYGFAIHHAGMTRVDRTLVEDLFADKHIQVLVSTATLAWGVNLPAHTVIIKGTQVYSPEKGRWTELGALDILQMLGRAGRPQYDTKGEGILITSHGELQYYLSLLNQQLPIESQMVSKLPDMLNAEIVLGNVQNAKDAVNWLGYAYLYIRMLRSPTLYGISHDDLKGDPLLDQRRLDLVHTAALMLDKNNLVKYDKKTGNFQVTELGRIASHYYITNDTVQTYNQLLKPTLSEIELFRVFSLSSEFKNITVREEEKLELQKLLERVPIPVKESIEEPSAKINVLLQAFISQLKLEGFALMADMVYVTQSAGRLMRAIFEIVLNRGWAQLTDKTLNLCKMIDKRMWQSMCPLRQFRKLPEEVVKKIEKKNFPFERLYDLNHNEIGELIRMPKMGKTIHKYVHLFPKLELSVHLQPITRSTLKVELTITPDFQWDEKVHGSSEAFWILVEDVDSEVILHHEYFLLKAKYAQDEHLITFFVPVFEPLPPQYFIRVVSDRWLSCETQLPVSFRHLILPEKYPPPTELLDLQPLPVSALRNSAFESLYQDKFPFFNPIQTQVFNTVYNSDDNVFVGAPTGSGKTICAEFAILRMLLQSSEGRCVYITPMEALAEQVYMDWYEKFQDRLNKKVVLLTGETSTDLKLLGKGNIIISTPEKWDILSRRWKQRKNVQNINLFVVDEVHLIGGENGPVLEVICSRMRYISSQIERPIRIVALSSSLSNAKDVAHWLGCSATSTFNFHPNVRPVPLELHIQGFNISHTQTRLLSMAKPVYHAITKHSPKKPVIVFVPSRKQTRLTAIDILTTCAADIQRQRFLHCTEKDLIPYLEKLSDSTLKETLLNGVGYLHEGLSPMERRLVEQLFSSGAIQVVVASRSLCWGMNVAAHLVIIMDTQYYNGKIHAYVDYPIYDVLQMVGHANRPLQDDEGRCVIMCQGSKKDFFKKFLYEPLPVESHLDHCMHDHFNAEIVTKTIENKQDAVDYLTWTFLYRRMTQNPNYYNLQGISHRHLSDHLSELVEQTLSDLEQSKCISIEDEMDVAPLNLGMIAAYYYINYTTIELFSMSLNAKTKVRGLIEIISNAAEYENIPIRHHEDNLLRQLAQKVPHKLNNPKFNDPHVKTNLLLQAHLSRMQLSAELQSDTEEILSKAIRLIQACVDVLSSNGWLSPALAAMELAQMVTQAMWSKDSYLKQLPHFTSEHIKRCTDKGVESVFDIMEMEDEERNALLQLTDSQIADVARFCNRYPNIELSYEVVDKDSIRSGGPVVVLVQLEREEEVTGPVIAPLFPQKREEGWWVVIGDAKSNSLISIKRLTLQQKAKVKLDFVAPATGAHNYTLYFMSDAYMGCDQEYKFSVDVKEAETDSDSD
Calls of active or inactive are those of the source.
Hi! Could you answer with just one of these? yes (1) for active, no (0) for inactive

Some entries whose results are on file:
| compound | class.name |
| --- | --- |
| Cn1c(=O)n(-c2ccc(C(C)(C)C#N)cc2)c2c3cc(-c4cnc5ccccc5c4)ccc3ncc21 [DACTOLISIB] | no (0) |
| Cc1ccc(C(=O)Nc2ccc(Oc3cc4cnn(C)c4cc3-c3cn[nH]c3)c(F)c2)c(=O)n1-c1ccc(F)cc1 [MERESTINIB] | no (0) |

What was the test verdict on Cc1c(Cn2c(C)nc3c(C(=O)O)cc(N4CCOCC4)cc32)cccc1C(F)(F)F [GSK-2636771] ?
no (0)

Each compound tested received a call. Report the one for Cn1c(=O)c(F)c(Nc2ccc(I)cc2F)c2c(=O)n(C[C@@H](O)CO)cnc21 [TAK-733] .
no (0)

Could you check what this test reported for COc1cccc2cc(-c3nc([C@H]4CC[C@H](C(=O)O)CC4)n4ncnc(N)c34)[nH]c12 [OSI-027] ?
no (0)

Which outcome was entered for the compound C[C@@H]1COC(Nc2ccc3ncnc(Nc4ccc(OCc5nccs5)c(Cl)c4)c3c2)=N1 [VARLITINIB] in this test?
no (0)

Called result for CCc1nc(C(N)=O)c(Nc2ccc(N3CCC(N4CCN(C)CC4)CC3)c(OC)c2)nc1NC1CCOCC1 [GILTERITINIB]
yes (1)

How was COc1cc2ncnc(Nc3ccc(F)c(Cl)c3)c2cc1NC(=O)/C=C/CN1CCCCC1 [DACOMITINIB ANHYDROUS] classified in this test?
no (0)

Called result for COc1cc2c(Oc3ccc4[nH]c(C)cc4c3F)ncnc2cc1OCCCN1CCCC1 [CEDIRANIB]
no (0)

For this compound, state the assay outcome: COc1cc(Nc2ncc(F)c(Nc3ccc4c(n3)N(COP(=O)(O)O)C(=O)C(C)(C)O4)n2)cc(OC)c1OC [FOSTAMATINIB]
no (0)

Hello, I am checking results. What call was entered for FC(F)(F)c1ccc(CNc2ccc(Cc3c[nH]c4ncc(Cl)cc34)cn2)cn1 [PEXIDARTINIB] ?
no (0)

Can you look up the reported call for NC(=O)c1ccc(N(C(N)=O)c2c(F)cccc2F)nc1-c1ccc(F)cc1F [VX-702] for me?
no (0)

Record lookup: outcome of this test for Cn1cc(-c2[nH]c3cc(NC(=O)[C@H](N)C4CCCCC4)cc4c3c2C=NNC4=O)cn1 ?
no (0)

// return assay outcome for C=CC(=O)Nc1cccc(Nc2nc(Nc3ccc(N4CCN(C(C)=O)CC4)cc3OC)ncc2C(F)(F)F)c1 [ROCILETINIB]
no (0)

Could you check what this test reported for CCN1CCN(Cc2ccc(Nc3ncc(F)c(-c4cc(F)c5nc(C)n(C(C)C)c5c4)n3)nc2)CC1 [ABEMACICLIB] ?
no (0)

----------
biological target: Casein kinase I isoform gamma-1 (Homo sapiens, UniProt Q9HCP0); note: in the data inactive means no Kd found up to 30 µM
Sequence (Q9HCP0 whole entry, canonical isoform): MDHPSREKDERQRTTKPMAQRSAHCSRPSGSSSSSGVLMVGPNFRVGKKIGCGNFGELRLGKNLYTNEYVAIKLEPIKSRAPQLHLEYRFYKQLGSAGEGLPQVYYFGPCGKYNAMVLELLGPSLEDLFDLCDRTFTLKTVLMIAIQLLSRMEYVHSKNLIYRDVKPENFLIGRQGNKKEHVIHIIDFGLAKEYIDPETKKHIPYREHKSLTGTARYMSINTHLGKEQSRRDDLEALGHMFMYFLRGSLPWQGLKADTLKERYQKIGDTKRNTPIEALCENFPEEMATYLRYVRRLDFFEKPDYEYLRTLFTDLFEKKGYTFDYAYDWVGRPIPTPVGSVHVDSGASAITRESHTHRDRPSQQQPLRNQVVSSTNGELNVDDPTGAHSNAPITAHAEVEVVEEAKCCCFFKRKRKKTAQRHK
Active and inactive are the calls of the source.
Pick from TRUE = active, FALSE = inactive when you respond.

| molecule | class.name |
| --- | --- |
| Cn1c(=O)n(-c2ccc(C(C)(C)C#N)cc2)c2c3cc(-c4cnc5ccccc5c4)ccc3ncc21 [DACTOLISIB] | FALSE |
| C=CCN(/C=C1/C(=O)O[C@H](COC)[C@@]2(C)C1=C(O)C(=O)C1=C2[C@H](OC(C)=O)C[C@]2(C)C(=O)CC[C@@H]12)CC=C [SONOLISIB] | FALSE |

# lookup: test call for CC1(COc2ccc3c(c2)ncn3-c2ccc3cccc(N4CCC(N)CC4)c3n2)COC1 [CRENOLANIB]
FALSE

Hi, do you know how Cc1ccc(C(=O)Nc2ccc(Oc3cc4cnn(C)c4cc3-c3cn[nH]c3)c(F)c2)c(=O)n1-c1ccc(F)cc1 [MERESTINIB] came out in this test?
FALSE

In this assay, the call recorded for Cc1cc(-c2cc(OC(=O)c3ccccc3)ccc2Cl)cc2nnc(Nc3ccc(OCCN4CCCC4)cc3)nc12 [TG100-801] was what?
FALSE

Name the outcome recorded for Cc1c(Cn2c(C)nc3c(C(=O)O)cc(N4CCOCC4)cc32)cccc1C(F)(F)F [GSK-2636771] in the assay.
FALSE

Could you check what this test reported for Cn1c(=O)c(F)c(Nc2ccc(I)cc2F)c2c(=O)n(C[C@@H](O)CO)cnc21 [TAK-733] ?
FALSE

GET /call?item= CCc1nc(C(N)=O)c(Nc2ccc(N3CCC(N4CCN(C)CC4)CC3)c(OC)c2)nc1NC1CCOCC1 [GILTERITINIB] returns the recorded outcome of this test.
FALSE

Status in this test for CNC(=O)c1ccc(Nc2ncc(C(F)(F)F)c(NCc3nccnc3N(C)S(C)(=O)=O)n2)cc1 [DEFACTINIB] ?
FALSE

Per the records of this test, what outcome belongs to COCCN1CCN(Cc2ccc(-c3n[nH]c4c3C(=O)c3c(NC(=O)NN5CCOCC5)cccc3-4)cc2)CC1 [RGB-286638] ?
TRUE

How was NC(=O)c1ccc(N(C(N)=O)c2c(F)cccc2F)nc1-c1ccc(F)cc1F [VX-702] classified in this test?
FALSE

What did the test return for Cc1cc(Nc2nc(N[C@@H](C)c3ncc(F)cn3)ncc2Cl)n[nH]1 [AZD-1480] ?
FALSE

Lab log entry: FC(F)(F)c1ccc(CNc2ccc(Cc3c[nH]c4ncc(Cl)cc34)cn2)cn1 [PEXIDARTINIB] — outcome as called in the assay?
FALSE

Entry O=S(=O)(c1cccc2c(O)nccc12)N1CCCNCC1 [HYDROXYFASUDIL] : call = ?
FALSE

Any idea what this test logged for COc1cccc2cc(-c3nc([C@H]4CC[C@H](C(=O)O)CC4)n4ncnc(N)c34)[nH]c12 [OSI-027] ?
FALSE

Could you kindly confirm the outcome this assay logged for COc1cc2ncnc(Nc3ccc(F)c(Cl)c3)c2cc1NC(=O)/C=C/CN1CCCCC1 [DACOMITINIB ANHYDROUS] ?
FALSE

Any idea what this test logged for CNC(=O)c1cccc(-c2ccc3c(N4CCOC[C@@H]4C)nc(N4CCOC[C@@H]4C)nc3n2)c1 [VISTUSERTIB] ?
FALSE

Please let me know the test result on file for CN1CCN(c2nc(C3=C(c4c[nH]c5ccccc45)C(=O)NC3=O)c3ccccc3n2)CC1 [SOTRASTAURIN] .
FALSE

Could you check what this test reported for COc1cc(F)c(F)c(Nc2ccc(I)cc2F)c1NS(=O)(=O)C1(C[C@H](O)CO)CC1 [REFAMETINIB] ?
FALSE
